Biological target: Muscarinic acetylcholine receptor M2 (Mus musculus, UniProt Q9ERZ4)
Sequence (Q9ERZ4 whole entry): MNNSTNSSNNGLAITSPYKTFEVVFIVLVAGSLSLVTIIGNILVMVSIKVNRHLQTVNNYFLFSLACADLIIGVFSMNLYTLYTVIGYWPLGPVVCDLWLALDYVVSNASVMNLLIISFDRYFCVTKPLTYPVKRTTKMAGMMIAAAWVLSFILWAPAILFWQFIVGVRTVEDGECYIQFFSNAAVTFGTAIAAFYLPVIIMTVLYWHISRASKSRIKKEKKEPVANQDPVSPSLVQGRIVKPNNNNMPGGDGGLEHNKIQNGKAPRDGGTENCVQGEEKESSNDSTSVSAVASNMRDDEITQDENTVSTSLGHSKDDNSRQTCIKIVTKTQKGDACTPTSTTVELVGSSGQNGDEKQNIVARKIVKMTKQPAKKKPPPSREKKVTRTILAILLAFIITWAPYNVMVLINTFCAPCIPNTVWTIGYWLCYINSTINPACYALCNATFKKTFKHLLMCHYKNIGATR
Experiment: biochemical
Description: Compound was evaluated for the competitive inhibition of [3H]methylscopolamine binding to muscarinic acetylcholine receptor M2 of mouse cerebral cortex
Reported IC50 values follow for various compounds
property.measured: IC50 (nM)

smiles_data=CN(C)Cc1ccc(CSCCN/C=C(/NCCSCc2ccc(CN(C)C)o2)[N+](=O)[O-])o1 assay_target="Muscarinic acetylcholine receptor M2 (Mus musculus, UniProt Q9ERZ4)" result_units=nM recorded_result=500
smiles_data=CN(C)Cc1ccc(CSCCNc2cc(NCCSCc3ccc(CN(C)C)o3)c([N+](=O)[O-])cc2[N+](=O)[O-])o1 assay_target="Muscarinic acetylcholine receptor M2 (Mus musculus, UniProt Q9ERZ4)" result_units=nM recorded_result=590
smiles_data=CNC(=O)Oc1ccc2c(c1)[C@]1(C)CCN(C)[C@@H]1N2C assay_target="Muscarinic acetylcholine receptor M2 (Mus musculus, UniProt Q9ERZ4)" result_units=nM recorded_result=160000
smiles_data=CN(C)Cc1ccc(CSCCCCCCCSCc2ccc(CN(C)C)o2)o1 assay_target="Muscarinic acetylcholine receptor M2 (Mus musculus, UniProt Q9ERZ4)" result_units=nM recorded_result=710
smiles_data=CN(C)Cc1ccc(CSCCCCCCCCSCc2ccc(CN(C)C)o2)o1 assay_target="Muscarinic acetylcholine receptor M2 (Mus musculus, UniProt Q9ERZ4)" result_units=nM recorded_result=540
smiles_data=CN(C)Cc1ccc(CSCCCCCCCCCSCc2ccc(CN(C)C)o2)o1 assay_target="Muscarinic acetylcholine receptor M2 (Mus musculus, UniProt Q9ERZ4)" result_units=nM recorded_result=400
